Where do these numbers come from? They come from patent US7973162B2.

# target system: M2 muscarinic receptor (Homo sapiens)
# Construct: expressed in transfected cells; host or cells: CHO (M2-CHO)
# Sequence (P08172 whole entry): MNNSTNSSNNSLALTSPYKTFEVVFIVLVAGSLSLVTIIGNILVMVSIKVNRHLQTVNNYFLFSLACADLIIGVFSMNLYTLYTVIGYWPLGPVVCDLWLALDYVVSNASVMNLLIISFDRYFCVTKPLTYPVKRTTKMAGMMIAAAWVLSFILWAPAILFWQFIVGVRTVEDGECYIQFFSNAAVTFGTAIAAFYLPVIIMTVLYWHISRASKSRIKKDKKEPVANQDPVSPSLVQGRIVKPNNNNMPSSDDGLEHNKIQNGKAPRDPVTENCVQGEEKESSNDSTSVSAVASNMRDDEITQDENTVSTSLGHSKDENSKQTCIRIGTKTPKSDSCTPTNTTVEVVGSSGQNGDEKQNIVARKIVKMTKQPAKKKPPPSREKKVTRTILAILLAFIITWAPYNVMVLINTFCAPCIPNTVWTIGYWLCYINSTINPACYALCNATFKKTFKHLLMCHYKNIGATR
# assay text: Functional mobilization of intracellular calcium (FLIPR), M2-CHO cells
# Type: cell-based
# particulars: 100% efficacy = maximum response obtained with the Carbachol control
assay metric: Emax

molecule	assay metric	observed measurement
O=C1CC2CC3(CCN(CC4CCCCC4)CC3)c3ccccc3C2O1 (stereo not shown) [Compound 18]	Emax	25 to 100%
CN1C(=O)C[C@@H]2CC3(CCN(C4CCCCCC4)CC3)c3ccccc3[C@@H]21 [Compound 10]	Emax	25 to 100%
O=C1CC2CC3(CCN(C4CCCCC4)CC3)c3ccccc3C2O1 (stereo not shown) [Compound 21]	Emax	25 to 100%
c1ccc2c(c1)C1OCCC1CC21CCN(C2CCCCC2)CC1 (stereo not shown) [Compound 26]	Emax	< 25%
O=C1C[C@@H]2[C@H](N1)c1ccccc1C21CCN(C2C[C@H]3CC[C@@H]2C3)CC1 (stereo partly shown) [Compound 32]	Emax	25 to 100%
CCOC(=O)N1CCC(N2CCC3(CC2)C[C@H]2CC(=O)N(C)[C@H]2c2ccccc23)CC1 [Compound 12]	Emax	25 to 100%
CN1C(=O)C[C@@H]2CC3(CCN(C4CC5CCC(C5)C4)CC3)c3ccccc3[C@@H]21 (stereo partly shown) [Compound 15]	Emax	< 25%
CCOC(=O)N1CCC(N2CCC3(CC2)C[C@H]2CC(=O)N(CCOC)[C@H]2c2ccccc23)CC1 [Compound 1]	Emax	25 to 100%
O=C1C[C@@H]2CC3(CCN(C[C@@H]4C[C@H]5C=C[C@H]4C5)CC3)c3ccccc3[C@@H]2N1 [Compound 25]	Emax	25 to 100%
c1ccc2c(c1)C1OCCC1CC21CCN(C2CC3CCC(C3)C2)CC1 (stereo not shown) [Compound 8]	Emax	< 25%
